test: Aqueous kinetic solubility of the compound at pH 7.4 incubated for 2 hrs by UPLC-MS analysis; type: physicochemical; conditions: read-out: Kinetic_solubility
Would you please tag the item 1 (yes) when its solubility kinetic at 2 h is 100 µg/mL or above, and 0 (no) when it is below?

{"CHEMICAL_SMILES": "C/C=C1\\NC(=O)[C@H]([C@@H](C)O)NC(=O)c2csc(n2)-c2ccc(-c3nc(-c4nc(C(=O)NC5(C(=O)NCCCN6CCN(C(C)C)CC6)CC5)cs4)cs3)nc2-c2csc(n2)[C@H]([C@@H](C)O)NC(=O)c2csc(n2)[C@H](C(C)C)NC(=O)c2csc1n2.Cl", "QUALITATIVE_LABEL": "0 (no)"}
{"CHEMICAL_SMILES": "C/C=C1\\NC(=O)[C@H]([C@@H](C)O)NC(=O)c2csc(n2)-c2ccc(-c3nc(-c4nc(C(=O)NC5(C(=O)NCCCN6CCN(C(C)C)CC6)CC5)cs4)cs3)nc2-c2csc(n2)[C@H]([C@@H](C)O)NC(=O)c2csc(n2)[C@H](C(C)C)NC(=O)c2csc1n2", "QUALITATIVE_LABEL": "1 (yes)"}
{"CHEMICAL_SMILES": "C/C=C(\\NC(=O)c1csc(-c2csc(-c3ccc4c(n3)-c3csc(n3)[C@H]([C@@H](C)O)NC(=O)c3csc(n3)[C@H](C(C)C)NC(=O)c3csc(n3)/C(=C/C)NC(=O)[C@H]([C@@H](C)O)NC(=O)c3csc-4n3)n2)n1)C(=O)NCCN1CCN(C(C)C)CC1.Cl", "QUALITATIVE_LABEL": "0 (no)"}
{"CHEMICAL_SMILES": "C/C=C(\\NC(=O)c1csc(-c2csc(-c3ccc4c(n3)-c3csc(n3)[C@H]([C@@H](C)O)NC(=O)c3csc(n3)[C@H](C(C)C)NC(=O)c3csc(n3)/C(=C/C)NC(=O)[C@H]([C@@H](C)O)NC(=O)c3csc-4n3)n2)n1)C(=O)NCC(C)=O", "QUALITATIVE_LABEL": "0 (no)"}
{"CHEMICAL_SMILES": "C/C=C(\\NC(=O)c1csc(-c2csc(-c3ccc4c(n3)-c3csc(n3)[C@H]([C@@H](C)O)NC(=O)c3csc(n3)[C@H](C(C)C)NC(=O)c3csc(n3)/C(=C/C)NC(=O)[C@H]([C@@H](C)O)NC(=O)c3csc-4n3)n2)n1)C(=O)NCCN1CCN(C(C)C)CC1", "QUALITATIVE_LABEL": "1 (yes)"}
